system: SARS-COV-2 omicron JN.1; assay: microbe, parasite or virus in culture; format: cell-based; settings: Severe acute respiratory syndrome coronavirus 2, 48 h
Reported Endpoint: pIC50
For clarity, pIC50 is expressed as the negative log10 of concentration in mol/L.

pIC50 reported for this molecule CCCCN(CCCC)CCC(O)c1cc2c(Cl)cc(Cl)cc2c2cc(C(F)(F)F)ccc12 (stereo not drawn) : 5.40

Record CCN(CC)Cc1cc(Nc2ccnc3cc(Cl)ccc23)ccc1O . Reported pIC50: 4.92

response.value for CCN(CC)CCCC(C)Nc1ccnc2cc(Cl)ccc12 (stereo not drawn) (field: pIC50) = 4.92
